Measured values drawn from paper PMC7253723 for this set.

Assay: Critical aggregation concentration (CAC) Nile red fluorescence assay
Assay type: physicochemical
Conditions: Nile red fluorescence (~10 nM NR in water), lipopeptoids 2.5 × 10^-2 to 1 wt.%, excitation 552 nm, peak around 610 nm, room temperature; inflection in emission intensity
Description: Nile red (NR) fluorescence was used to measure critical aggregation concentration (CAC) for the synthesized lipopeptoids. Lipopeptoids were dissolved at 2.5 × 10^−2 to 1 wt.% in a dilute solution of Nile red (0.25 μg/100 mL, i.e. ~10 nM concentration) prepared in water. NR was excited at 552 nm and emission was recorded at room temperature in the range 550–750 nm using a 10.0 × 5.0 mm^2 quartz cell (Jasco spectrofluorimeter FP-6500). […]
Square brackets hold non-standard residues; d marks the D form. Peptide text beside a SMILES is read from it. * marks the point of attachment. N(1-naphthylmethyl)Gly = O=C(O)CNCc1cccc2ccccc12; N(4-MeBn)Gly = Cc1ccc(CNCC(=O)O)cc1; Palmitoyl = CCCCCCCCCCCCCCCC(=O)*; Nspe = C[C@H](NCC(=O)O)c1ccccc1; Lauroyl = CCCCCCCCCCCC(=O)*; Nonanoyl = CCCCCCCCC(=O)*; AEEA = NCCOCCOCC(=O)O; NBuGly = CCCCNCC(=O)O; Nlys = NCCCCNCC(=O)O
observedProperty: CAC (µM)
Only the number, expressed in µM, is required.

Solved entries (count: 4):
- compound: "CCCCCCCCC(=O)NCCOCCOCC(=O)N(CCCCN)CC(=O)N(CC(=O)N(CC(=O)N(CCCCN)CC(=O)N(CC(=O)N(CC(=O)N(CCCCN)CC(=O)N(CC(=O)N(CC(=O)N(CCCCN)CC(=O)N(CCCCN)CC(N)=O)[C@@H](C)c1ccccc1)[C@@H](C)c1ccccc1)[C@@H](C)c1ccccc1)[C@@H](C)c1ccccc1)[C@@H](C)c1ccccc1)[C@@H](C)c1ccccc1 [C8-EG2-(kss)3-kk] ({Nonanoyl-AEEA}-[Nlys][Nspe][Nspe][Nlys][Nspe][Nspe][Nlys][Nspe][Nspe][Nlys][Nlys]-NH2)"
  CAC, µM: 270
- compound: "CCCCCCCCC(=O)NCCOCCOCC(=O)N(CC(=O)N(CCCCN)CC(=O)N(CC(=O)N(CCCCN)CC(=O)N(CC(=O)N(CCCCN)CC(=O)N(CCCC)CC(=O)N(CCCCN)CC(N)=O)Cc1cccc2ccccc12)Cc1ccc(C)cc1)Cc1cccc2ccccc12 [C8-EG2-kykbk] ({Nonanoyl-AEEA}-[N(1-naphthylmethyl)Gly][Nlys][N(4-MeBn)Gly][Nlys][N(1-naphthylmethyl)Gly][Nlys][NBuGly][Nlys]-NH2)"
  CAC, µM: 1900
- compound: "CCCCCCCCCCCC(=O)NCCOCCOCC(=O)N(CCCCN)CC(=O)N(CC(=O)N(CC(=O)N(CCCCN)CC(=O)N(CC(=O)N(CC(=O)N(CCCCN)CC(=O)N(CC(=O)N(CC(=O)N(CCCCN)CC(=O)N(CCCCN)CC(N)=O)[C@@H](C)c1ccccc1)[C@@H](C)c1ccccc1)[C@@H](C)c1ccccc1)[C@@H](C)c1ccccc1)[C@@H](C)c1ccccc1)[C@@H](C)c1ccccc1 [C11-EG2-(kss)3-kk] ({Lauroyl-AEEA}-[Nlys][Nspe][Nspe][Nlys][Nspe][Nspe][Nlys][Nspe][Nspe][Nlys][Nlys]-NH2)"
  CAC, µM: 310
- compound: "CCCCCCCCCCCCCCCC(=O)NCCOCCOCC(=O)N(CC(=O)N(CCCCN)CC(=O)N(CC(=O)N(CCCCN)CC(=O)N(CC(=O)N(CCCCN)CC(=O)N(CCCC)CC(=O)N(CCCCN)CC(N)=O)Cc1cccc2ccccc12)Cc1ccc(C)cc1)Cc1cccc2ccccc12 [C15-EG2-kykbk] ({Palmitoyl-AEEA}-[N(1-naphthylmethyl)Gly][Nlys][N(4-MeBn)Gly][Nlys][N(1-naphthylmethyl)Gly][Nlys][NBuGly][Nlys]-NH2)"
  CAC, µM: 410

Lab note: next compound to report on.
The compound CCCCCCCCC(=O)NCCOCCOCC(=O)N(CC(=O)N(CC(=O)N(CC(=O)N(CCCC)CC(=O)N(CCCCN)CC(=O)N(CCCCN)CC(=O)N(CCCCN)CC(=O)N(CCCCN)CC(=O)N(CCCCN)CC(N)=O)Cc1cccc2ccccc12)Cc1ccc(C)cc1)Cc1cccc2ccccc12 [C8-EG2-5k] ({Nonanoyl-AEEA}-[N(1-naphthylmethyl)Gly][N(4-MeBn)Gly][N(1-naphthylmethyl)Gly][NBuGly][Nlys][Nlys][Nlys][Nlys][Nlys]-NH2) showed CAC equal to 1600

----------
System: Pseudomonas aeruginosa (PA01)
Type: cell-based
Details: PA01; MH broth microdilution (CLSI M07-A10), ~5 × 10^5 CFU/mL, overnight 37°C, OD 600 nm; MIC = concentration with OD halfway between minimum and maximum, sigmoidal fit ± SD, n = 3 or more; maximum tested 100 μM
Protocol: Technical triplicates (n = 3) or more of samples at each concentration were analyzed.
Square brackets hold non-standard residues; d marks the D form. Peptide text beside a SMILES is read from it. * marks the point of attachment. N(1-naphthylmethyl)Gly = O=C(O)CNCc1cccc2ccccc12; N(4-MeBn)Gly = Cc1ccc(CNCC(=O)O)cc1; Nspe = C[C@H](NCC(=O)O)c1ccccc1; Lauroyl = CCCCCCCCCCCC(=O)*; Nonanoyl = CCCCCCCCC(=O)*; AEEA = NCCOCCOCC(=O)O; NBuGly = CCCCNCC(=O)O; Nlys = NCCCCNCC(=O)O
observedProperty: Antimicrobial activity (MIC) P. aeruginosa (µM)
Return type: number; implicit unit µM.

Reported Antimicrobial activity (MIC) P. aeruginosa for C[C@@H](c1ccccc1)N(CC(N)=O)C(=O)CN(C(=O)CN(CCCCN)C(=O)CN(C(=O)CN(C(=O)CN(CCCCN)C(=O)CN(C(=O)CN(C(=O)CN(CCCCN)C(=O)CN(C(=O)CN(C(=O)CNCCCCN)[C@@H](C)c1ccccc1)[C@@H](C)c1ccccc1)[C@@H](C)c1ccccc1)[C@@H](C)c1ccccc1)[C@@H](C)c1ccccc1)[C@@H](C)c1ccccc1)[C@@H](C)c1ccccc1 [(kss)4, reference compound] (H-[Nlys][Nspe][Nspe][Nlys][Nspe][Nspe][Nlys][Nspe][Nspe][Nlys][Nspe][Nspe]-NH2) was 16

Data point: CCCCCCCCC(=O)NCCOCCOCC(=O)N(CC(=O)N(CC(=O)N(CC(=O)N(CCCC)CC(=O)N(CCCCN)CC(=O)N(CCCCN)CC(=O)N(CCCCN)CC(=O)N(CCCCN)CC(N)=O)Cc1cccc2ccccc12)Cc1ccc(C)cc1)Cc1cccc2ccccc12 [C8-EG2-4k] ({Nonanoyl-AEEA}-[N(1-naphthylmethyl)Gly][N(4-MeBn)Gly][N(1-naphthylmethyl)Gly][NBuGly][Nlys][Nlys][Nlys][Nlys]-NH2) ; Antimicrobial activity (MIC) P. aeruginosa = 16

# compound C[C@@H](c1ccccc1)N(CC(N)=O)C(=O)CN(C(=O)CN(CCCCN)C(=O)CN(C(=O)CN(C(=O)CNCCCCN)[C@@H](C)c1ccccc1)[C@@H](C)c1ccccc1)[C@@H](C)c1ccccc1 [(kss)2, reference compound] (H-[Nlys][Nspe][Nspe][Nlys][Nspe][Nspe]-NH2) ; its Antimicrobial activity (MIC) P. aeruginosa = 44

The compound listed as CCCCCCCCCCCC(=O)NCCOCCOCC(=O)N(CCCCN)CC(=O)N(CC(=O)N(CC(=O)N(CCCCN)CC(=O)N(CC(=O)N(CC(=O)N(CCCCN)CC(=O)N(CC(=O)N(CC(=O)N(CCCCN)CC(=O)N(CCCCN)CC(N)=O)[C@@H](C)c1ccccc1)[C@@H](C)c1ccccc1)[C@@H](C)c1ccccc1)[C@@H](C)c1ccccc1)[C@@H](C)c1ccccc1)[C@@H](C)c1ccccc1 [C11-EG2-(kss)3-kk] ({Lauroyl-AEEA}-[Nlys][Nspe][Nspe][Nlys][Nspe][Nspe][Nlys][Nspe][Nspe][Nlys][Nlys]-NH2) has a reported Antimicrobial activity (MIC) P. aeruginosa of 15

Entry CCCCCCCCC(=O)NCCOCCOCC(=O)N(CCCCN)CC(=O)N(CC(=O)N(CC(=O)N(CCCCN)CC(=O)N(CC(=O)N(CC(=O)N(CCCCN)CC(=O)N(CCCCN)CC(N)=O)[C@@H](C)c1ccccc1)[C@@H](C)c1ccccc1)[C@@H](C)c1ccccc1)[C@@H](C)c1ccccc1 [C8-EG2-(kss)2-kk] ({Nonanoyl-AEEA}-[Nlys][Nspe][Nspe][Nlys][Nspe][Nspe][Nlys][Nlys]-NH2) — recorded Antimicrobial activity (MIC) P. aeruginosa = 13

----------
tested on: Escherichia coli (ATCC 25922); type: cell-based; conditions: MH broth microdilution (CLSI M07-A10), ~5 × 10^5 CFU/mL, overnight 37°C, OD 600 nm, MIC = concentration with OD halfway between minimum and maximum, sigmoidal fit ± SD, n = 3 or more, maximum tested 100 μM
Square brackets hold non-standard residues; d marks the D form. Peptide text beside a SMILES is read from it. * marks the point of attachment. N(1-naphthylmethyl)Gly = O=C(O)CNCc1cccc2ccccc12; N(4-MeBn)Gly = Cc1ccc(CNCC(=O)O)cc1; Nspe = C[C@H](NCC(=O)O)c1ccccc1; Lauroyl = CCCCCCCCCCCC(=O)*; Nonanoyl = CCCCCCCCC(=O)*; AEEA = NCCOCCOCC(=O)O; NBuGly = CCCCNCC(=O)O; Nlys = NCCCCNCC(=O)O
// reported Antimicrobial activity (MIC) E. coli for each item listed
State the answer as a number, implicitly in µM.

Worked examples, 4 compounds total:
- compound: "CCCCCCCCC(=O)NCCOCCOCC(=O)N(CCCCN)CC(=O)N(CC(=O)N(CC(=O)N(CCCCN)CC(=O)N(CC(=O)N(CC(=O)N(CCCCN)CC(=O)N(CCCCN)CC(N)=O)[C@@H](C)c1ccccc1)[C@@H](C)c1ccccc1)[C@@H](C)c1ccccc1)[C@@H](C)c1ccccc1 [C8-EG2-(kss)2-kk] ({Nonanoyl-AEEA}-[Nlys][Nspe][Nspe][Nlys][Nspe][Nspe][Nlys][Nlys]-NH2)"
  unitAnnotation: "µM"
  Antimicrobial activity (MIC) E. coli: 18
- compound: "C[C@@H](c1ccccc1)N(CC(N)=O)C(=O)CN(C(=O)CN(CCCCN)C(=O)CN(C(=O)CN(C(=O)CN(CCCCN)C(=O)CN(C(=O)CN(C(=O)CN(CCCCN)C(=O)CN(C(=O)CN(C(=O)CNCCCCN)[C@@H](C)c1ccccc1)[C@@H](C)c1ccccc1)[C@@H](C)c1ccccc1)[C@@H](C)c1ccccc1)[C@@H](C)c1ccccc1)[C@@H](C)c1ccccc1)[C@@H](C)c1ccccc1 [(kss)4, reference compound] (H-[Nlys][Nspe][Nspe][Nlys][Nspe][Nspe][Nlys][Nspe][Nspe][Nlys][Nspe][Nspe]-NH2)"
  unitAnnotation: "µM"
  Antimicrobial activity (MIC) E. coli: 6
- compound: "CCCCCCCCCCCC(=O)NCCOCCOCC(=O)N(CCCCN)CC(=O)N(CC(=O)N(CC(=O)N(CCCCN)CC(=O)N(CC(=O)N(CC(=O)N(CCCCN)CC(=O)N(CC(=O)N(CC(=O)N(CCCCN)CC(=O)N(CCCCN)CC(N)=O)[C@@H](C)c1ccccc1)[C@@H](C)c1ccccc1)[C@@H](C)c1ccccc1)[C@@H](C)c1ccccc1)[C@@H](C)c1ccccc1)[C@@H](C)c1ccccc1 [C11-EG2-(kss)3-kk] ({Lauroyl-AEEA}-[Nlys][Nspe][Nspe][Nlys][Nspe][Nspe][Nlys][Nspe][Nspe][Nlys][Nlys]-NH2)"
  unitAnnotation: "µM"
  Antimicrobial activity (MIC) E. coli: 3
- compound: "CCCCCCCCC(=O)NCCOCCOCC(=O)N(CCCCN)CC(=O)N(CC(=O)N(CC(=O)N(CCCCN)CC(=O)N(CC(=O)N(CC(=O)N(CCCCN)CC(=O)N(CC(=O)N(CC(=O)N(CCCCN)CC(=O)N(CCCCN)CC(N)=O)[C@@H](C)c1ccccc1)[C@@H](C)c1ccccc1)[C@@H](C)c1ccccc1)[C@@H](C)c1ccccc1)[C@@H](C)c1ccccc1)[C@@H](C)c1ccccc1 [C8-EG2-(kss)3-kk] ({Nonanoyl-AEEA}-[Nlys][Nspe][Nspe][Nlys][Nspe][Nspe][Nlys][Nspe][Nspe][Nlys][Nlys]-NH2)"
  unitAnnotation: "µM"
  Antimicrobial activity (MIC) E. coli: 2

Entry CCCCCCCCC(=O)NCCOCCOCC(=O)N(CC(=O)N(CCCCN)CC(=O)N(CC(=O)N(CCCCN)CC(=O)N(CC(=O)N(CCCCN)CC(=O)N(CCCC)CC(=O)N(CCCCN)CC(N)=O)Cc1cccc2ccccc12)Cc1ccc(C)cc1)Cc1cccc2ccccc12 [C8-EG2-kykbk] ({Nonanoyl-AEEA}-[N(1-naphthylmethyl)Gly][Nlys][N(4-MeBn)Gly][Nlys][N(1-naphthylmethyl)Gly][Nlys][NBuGly][Nlys]-NH2) , tested on Escherichia coli (ATCC 25922), has a reported Antimicrobial activity (MIC) E. coli of 11

Kindly note: Escherichia coli (ATCC 25922), CCCCCCCCC(=O)NCCOCCOCC(=O)N(CC(=O)N(CC(=O)N(CC(=O)N(CCCC)CC(=O)N(CCCCN)CC(=O)N(CCCCN)CC(=O)N(CCCCN)CC(=O)N(CCCCN)CC(N)=O)Cc1cccc2ccccc12)Cc1ccc(C)cc1)Cc1cccc2ccccc12 [C8-EG2-4k] ({Nonanoyl-AEEA}-[N(1-naphthylmethyl)Gly][N(4-MeBn)Gly][N(1-naphthylmethyl)Gly][NBuGly][Nlys][Nlys][Nlys][Nlys]-NH2) , Antimicrobial activity (MIC) E. coli value reported: 17
